Tested on: Cryptococcus neoformans
Experiment: Antifungal activity against Cryptococcus neoformans ATCC BLS108 after 72 hrs by broth microdilution method
Format: functional
Readout kind: MIC80 (µg/mL)
Numbers only; they are read as µg/mL.

Reference set, count: 2
{"columns": ["Molecule", "Recorded result"],
 "data": [
  ["O=C(/C=C/c1ccc(Br)cc1)Nc1ccc(N2CCN(CC(O)(Cn3cncn3)c3ccc(F)cc3F)CC2)c(F)c1 (stereo not given)", 0.0156],
  ["O=C(/C=C/c1ccccc1Cl)Nc1ccc(N2CCN(CC(O)(Cn3cncn3)c3ccc(F)cc3F)CC2)c(F)c1 (stereo not given)", 1]
]}

Task: What measured MIC80 goes with O=C(/C=C/c1ccc(Br)cc1)Nc1ccc(N2CCN(CC(O)(Cn3cncn3)c3ccc(F)cc3F)CC2)cc1 (stereo not given) ?
Result: 0.25

Task: Proceed to N#Cc1cccc(/C=C/C(=O)Nc2ccc(N3CCN(CC(O)(Cn4cncn4)c4ccc(F)cc4F)CC3)cc2)c1 (stereo not given)
Result: 1

Task: Moving on to O=C(/C=C/c1ccc(Cl)c(Cl)c1)Nc1ccc(N2CCN(CC(O)(Cn3cncn3)c3ccc(F)cc3F)CC2)cc1 (stereo not given)
Result: 0.25

Task: Now this one: O=C(/C=C/c1ccccc1[N+](=O)[O-])Nc1ccc(N2CCN(CC(O)(Cn3cncn3)c3ccc(F)cc3F)CC2)c(F)c1 (stereo not given)
Result: 1

Task: Now try O=C(/C=C/c1cccc([N+](=O)[O-])c1)Nc1ccc(N2CCN(CC(O)(Cn3cncn3)c3ccc(F)cc3F)CC2)c(F)c1 (stereo not given) .
Result: 0.0625

Task: Continue with O=C(/C=C/c1ccc(Cl)cc1)Nc1ccc(N2CCN(CC(O)(Cn3cncn3)c3ccc(F)cc3F)CC2)c(F)c1 (stereo not given)
Result: 0.25

* * *

Listed below: MIC80 values for each entry.
System: Cryptococcus neoformans
Assay: Antifungal activity against Cryptococcus neoformans ATCC BLS108 after 72 hrs by broth microdilution method
Format: functional
State the answer as a number, implicitly in µg/mL.

Solved entries (count: 7):
{"columns": ["Compound", "Assay target", "MIC80, µg/mL"],
 "data": [
  ["O=C(/C=C/c1ccccc1F)Nc1ccc(N2CCN(CC(O)(Cn3cncn3)c3ccc(F)cc3F)CC2)c(F)c1 (stereo not drawn)", "Cryptococcus neoformans", 0.25],
  ["O=C(/C=C/c1ccc(F)cc1)Nc1ccc(N2CCN(CC(O)(Cn3cncn3)c3ccc(F)cc3F)CC2)c(F)c1 (stereo not drawn)", "Cryptococcus neoformans", 0.25],
  ["O=C(/C=C/c1ccccc1F)Nc1ccc(N2CCN(CC(O)(Cn3cncn3)c3ccc(F)cc3F)CC2)cc1 (stereo not drawn)", "Cryptococcus neoformans", 0.0625],
  ["N#Cc1ccc(/C=C/C(=O)Nc2ccc(N3CCN(CC(O)(Cn4cncn4)c4ccc(F)cc4F)CC3)c(F)c2)cc1 (stereo not drawn)", "Cryptococcus neoformans", 1],
  ["O=C(/C=C/c1ccc(Cl)c(Cl)c1)Nc1ccc(N2CCN(CC(O)(Cn3cncn3)c3ccc(F)cc3F)CC2)c(F)c1 (stereo not drawn)", "Cryptococcus neoformans", 1],
  ["O=C(/C=C/c1ccc(Cl)cc1)Nc1ccc(N2CCN(CC(O)(Cn3cncn3)c3ccc(F)cc3F)CC2)cc1 (stereo not drawn)", "Cryptococcus neoformans", 1],
  ["O=C(/C=C/c1cccc(Br)c1)Nc1ccc(N2CCN(CC(O)(Cn3cncn3)c3ccc(F)cc3F)CC2)cc1 (stereo not drawn)", "Cryptococcus neoformans", 1]
]}

Task: Lookup: MIC80 / Cryptococcus neoformans / OC(Cn1cncn1)(Cn1cncn1)c1ccc(F)cc1F
Result: 1

* * *

Tested on: Cryptococcus neoformans
Experiment: Antifungal activity against Cryptococcus neoformans ATCC BLS108 after 72 hrs by broth microdilution method
Assay type: functional
Readout kind: MIC80 (µg/mL)
# number only, unit µg/mL dropped from output

For orientation, consider the following solved cases.
{"columns": ["Compound", "MIC80 (µg/mL)"],
 "data": [
  ["COc1ccc(/C=C/C(=O)Nc2ccc(N3CCN(CC(O)(Cn4cncn4)c4ccc(F)cc4F)CC3)c(F)c2)cc1OC (stereo not drawn)", 1],
  ["O=C(/C=C/c1cccc(Cl)c1)Nc1ccc(N2CCN(CC(O)(Cn3cncn3)c3ccc(F)cc3F)CC2)c(F)c1 (stereo not drawn)", 0.25],
  ["O=C(/C=C/c1ccccc1Cl)Nc1ccc(N2CCN(CC(O)(Cn3cncn3)c3ccc(F)cc3F)CC2)cc1 (stereo not drawn)", 0.25],
  ["O=C(/C=C/c1ccc([N+](=O)[O-])cc1)Nc1ccc(N2CCN(CC(O)(Cn3cncn3)c3ccc(F)cc3F)CC2)cc1 (stereo not drawn)", 1],
  ["Cc1ccc(/C=C/C(=O)Nc2ccc(N3CCN(CC(O)(Cn4cncn4)c4ccc(F)cc4F)CC3)c(F)c2)cc1 (stereo not drawn)", 4]
]}

Task: Record request: MIC80 value, item O=C(/C=C/c1ccc([N+](=O)[O-])cc1)Nc1ccc(N2CCN(CC(O)(Cn3cncn3)c3ccc(F)cc3F)CC2)c(F)c1 (stereo not drawn)
Result: 1

Task: Could you do the same for Cc1ccc(/C=C/C(=O)Nc2ccc(N3CCN(CC(O)(Cn4cncn4)c4ccc(F)cc4F)CC3)cc2)cc1 (stereo not drawn) , please?
Result: 1

Task: Here is the next compound: O=C(/C=C/c1cccc(F)c1)Nc1ccc(N2CCN(CC(O)(Cn3cncn3)c3ccc(F)cc3F)CC2)cc1 (stereo not drawn)
Result: 0.25

* * *

Test system: Cryptococcus neoformans
Assay: Antifungal activity against Cryptococcus neoformans ATCC BLS108 after 72 hrs by broth microdilution method
Assay type: functional
Let's look at some compounds and their measured MIC80.
State the answer as a number, implicitly in µg/mL.

Before answering, review these 3 worked examples.
{"columns": ["Compound", "MIC80 (µg/mL)"],
 "data": [
  ["O=C(/C=C/c1cccc(Cl)c1)Nc1ccc(N2CCN(CC(O)(Cn3cncn3)c3ccc(F)cc3F)CC2)cc1 (stereo unspecified)", 1],
  ["COc1ccc(OC)c(/C=C/C(=O)Nc2ccc(N3CCN(CC(O)(Cn4cncn4)c4ccc(F)cc4F)CC3)cc2)c1 (stereo unspecified)", 0.25],
  ["C[C@@H](c1ncncc1F)[C@](O)(Cn1cncn1)c1ccc(F)cc1F", 0.0152]
]}

Task: Item under review: O=C(/C=C/c1ccccc1)Nc1ccc(N2CCN(CC(O)(Cn3cncn3)c3ccc(F)cc3F)CC2)c(F)c1 (stereo unspecified) . Reported MIC80?
Result: 0.0156

Task: Try O=C(/C=C/c1ccccc1)Nc1ccc(N2CCN(CC(O)(Cn3cncn3)c3ccc(F)cc3F)CC2)cc1 (stereo unspecified) next.
Result: 0.25

Task: Then this compound: O=C(/C=C/c1cccc(Br)c1)Nc1ccc(N2CCN(CC(O)(Cn3cncn3)c3ccc(F)cc3F)CC2)c(F)c1 (stereo unspecified)
Result: 0.0156

* * *

Tested on: Cryptococcus neoformans
Assay: Antifungal activity against Cryptococcus neoformans ATCC BLS108 after 72 hrs by broth microdilution method
Format: functional
Readout kind: MIC80

Task: Name the reported MIC80 value associated with the compound COc1ccc(OC)c(/C=C/C(=O)Nc2ccc(N3CCN(CC(O)(Cn4cncn4)c4ccc(F)cc4F)CC3)c(F)c2)c1 (configuration not stated)
Result: 1 µg/mL

Task: Now the same for CCC(C)n1ncn(-c2ccc(N3CCN(c4ccc(OCC5COC(Cn6cncn6)(c6ccc(Cl)cc6Cl)O5)cc4)CC3)cc2)c1=O (configuration not stated)
Result: 1 µg/mL

Task: Another compound to look at: O=C(/C=C/c1ccc(F)cc1)Nc1ccc(N2CCN(CC(O)(Cn3cncn3)c3ccc(F)cc3F)CC2)cc1 (configuration not stated)
Result: 0.25 µg/mL

* * *

Each entry below carries its recorded MIC80.
Tested on: Cryptococcus neoformans
Assay: Antifungal activity against Cryptococcus neoformans ATCC BLS108 after 72 hrs by broth microdilution method
Format: functional
API: value field is a number in µg/mL; no unit string.

Worked set:
{"columns": ["Compound", "MIC80 (µg/mL)"],
 "data": [
  ["O=C(/C=C/c1cccc(F)c1)Nc1ccc(N2CCN(CC(O)(Cn3cncn3)c3ccc(F)cc3F)CC2)c(F)c1 (centres undefined)", 0.25],
  ["COc1ccc(/C=C/C(=O)Nc2ccc(N3CCN(CC(O)(Cn4cncn4)c4ccc(F)cc4F)CC3)cc2)cc1OC (centres undefined)", 0.25],
  ["O=C(/C=C/c1ccccc1[N+](=O)[O-])Nc1ccc(N2CCN(CC(O)(Cn3cncn3)c3ccc(F)cc3F)CC2)cc1 (centres undefined)", 1]
]}

Task: Look up MIC80 for this compound: O=C(/C=C/c1cccc([N+](=O)[O-])c1)Nc1ccc(N2CCN(CC(O)(Cn3cncn3)c3ccc(F)cc3F)CC2)cc1 (centres undefined)
Result: 0.25

Reference source for all entries: ChEMBL document CHEMBL1641470
